meta.source: paper PMC12385147

Assay: Pharmacokinetics in SD rats
Assay type: in vivo
Details: both sexes, rat, plasma, iv; SD rats, i.v., 2 mg/kg; read-out: MRTINF_obs
observable: MRT inf (h)
Quick note: give the figure in h, leave out the unit.

What value of measured MRT inf is listed for Cc1c(C(=O)Nc2ccc(Oc3ccnc(Nc4cccc(OC5CCN(C)CC5)c4)n3)cc2)c(=O)n(-c2ccccc2)n1C [compound 17c] ? 3.23

---

Experiment: Pharmacokinetics in SD rats
Assay type: in vivo
Conditions: both sexes, rat, plasma, oral; SD rats, p.o. 10 mg/kg vs i.v. 2 mg/kg; read-out: F (oral bioavailability)
observable: bioavailability (%)
Reply with just the number (in %).

// bioavailability lookup, key: Cc1c(C(=O)Nc2ccc(Oc3ccnc(Nc4cccc(OC5CCN(C)CC5)c4)n3)cc2)c(=O)n(-c2ccccc2)n1C [compound 17c] 45.3
